Measured values drawn from patent US20160176956A1 for this set.

Exercise: for every item that follows, state its recorded Signal over background.
Molecular target: T1, human BMP7 (human, UniProt P18075 293-431)
T1 construct: recombinant protein bought (Peprotech for ELISA, R&D Systems for RGA); also called hBMP7
T1 sequence: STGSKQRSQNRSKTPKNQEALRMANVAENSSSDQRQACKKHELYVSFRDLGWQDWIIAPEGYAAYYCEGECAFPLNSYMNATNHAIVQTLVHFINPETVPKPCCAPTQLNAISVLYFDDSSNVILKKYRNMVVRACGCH
Experiment: specificity ELISA, coated antigen, IgG 0.2 uM
One number for each entry.

I'm hoping you can list Signal over background for every binder here, please.
1. Antibody 5 (antibody, human IgG1, lambda, V domains shown, germlined clone of NOV0787 (HCDR2-matured NOV0442_VL[Y49,G50,N51Q]); human IgG1; lead antibody; also called NOV0951; NOV951) VH: QVQLVESGGGLVKPGGSLRLSCAASGFTFSSYVVHWVRQAPGKGLEWVGRIKRESSSYTTMYAAPVKGRFTISRDDSKNTLYLQMNSLKTEDTAVYYCARVERSKSGFDNWGQGTLVTVSS VL: QSVLTQPPSVSGAPGQRVTISCTGSSSNIGAGYSVHWYQQLPGTAPKLLIYGQSERPSGVPDRFSGSKSGTSASLAITGLQAEDEADYYCQSWDSSQTLVVFGGGTKLTVLG
2. Antibody 7 (antibody, human IgG1, lambda, V domains shown, germlined clone of NOV0806 (HCDR2-matured NOV0442_VL[Y49,G50,N51Q]); human IgG1; final lead; also called NOV0958; NOV958) VH: QVQLVESGGGLVKPGGSLRLSCAASGFTFSSYVVHWVRQAPGKGLEWVGRIRLETHGYAAEYAASVKGRFTISRDDSKNTLYLQMNSLKTEDTAVYYCARVERSKSGFDNWGQGTLVTVSS VL: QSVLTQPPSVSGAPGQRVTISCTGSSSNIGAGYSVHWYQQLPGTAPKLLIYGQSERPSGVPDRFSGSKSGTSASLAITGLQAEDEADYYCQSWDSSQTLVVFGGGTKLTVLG
3. Antibody 6 (antibody, human IgG1, lambda, V domains shown, germlined clone of NOV0798 (HCDR2-matured NOV0442_VL[Y49,G50,N51Q]); human IgG1; lead antibody; also called NOV0954; NOV954) VH: QVQLVESGGGLVKPGGSLRLSCAASGFTFSSYVVHWVRQAPGKGLEWVGRTRHSDMGYATSYAAPVKGRFTISRDDSKNTLYLQMNSLKTEDTAVYYCARVERSKSGFDNWGQGTLVTVSS VL: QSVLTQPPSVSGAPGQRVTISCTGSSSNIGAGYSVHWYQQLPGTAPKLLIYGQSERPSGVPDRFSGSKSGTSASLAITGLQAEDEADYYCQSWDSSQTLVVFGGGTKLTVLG
4. Antibody 3 (antibody, human IgG1, lambda, V domains shown, germlined clone of NOV0800 (HCDR2-matured NOV0442_VL[Y49,G50,N51S]); human IgG1; back-up antibody; also called NOV0961; NOV961) VH: QVQLVESGGGLVKPGGSLRLSCAASGFTFSSYVVHWVRQAPGKGLEWVGRIKDHKQGYTTAYAASVKGRFTISRDDSKNTLYLQMNSLKTEDTAVYYCARVERSKSGFDNWGQGTLVTVSS VL: QSVLTQPPSVSGAPGQRVTISCTGSSSNIGAGYSVHWYQQLPGTAPKLLIYGSSERPSGVPDRFSGSKSGTSASLAITGLQAEDEADYYCQSWDSSQTLVVFGGGTKLTVLG

*A*
1. 8
2. 7
3. 3
4. 2
